experiment_notes: Example 3 Part C: tablet single ascending doses, morning fasted vs 8 p.m., plasma pharmacokinetics
Type: in vivo, human
condition_details: human, in vivo, 40 mg, AUCinf
Method: Patients with severe major depressive disorder (MDD) aged 18 to 65 years were treated with an oral suspension or tablet of Compound 1 to study the effect of food and time of administration on the pharmacokinetics, as well as the safety and tolerability of these formulations. Part C is a randomized, participant- and Investigator-blinded, Sponsor-unblinded, placebo-controlled, parallel-group design to evaluate the pharmacokinetics and safety of single ascending doses of a Compound 1 citrate tablet. […]
value_type: AUC(0-inf) (ng·h/mL)

INSERT INTO assay_data (compound, numeric_value) VALUES
  ('COC[C@@]1(O)CC[C@@]2(C)[C@@H](CC[C@@H]3[C@@H]2CC[C@]2(C)[C@@H](C(=O)Cn4ccnc4)CC[C@@H]32)C1 [Compound 1]', 1390);
